# system: hD3 receptor (Homo sapiens, UniProt P35462)
# Construct: purchased BioSignal Packard Inc., Montreal, Canada
# Sequence (P35462 whole entry): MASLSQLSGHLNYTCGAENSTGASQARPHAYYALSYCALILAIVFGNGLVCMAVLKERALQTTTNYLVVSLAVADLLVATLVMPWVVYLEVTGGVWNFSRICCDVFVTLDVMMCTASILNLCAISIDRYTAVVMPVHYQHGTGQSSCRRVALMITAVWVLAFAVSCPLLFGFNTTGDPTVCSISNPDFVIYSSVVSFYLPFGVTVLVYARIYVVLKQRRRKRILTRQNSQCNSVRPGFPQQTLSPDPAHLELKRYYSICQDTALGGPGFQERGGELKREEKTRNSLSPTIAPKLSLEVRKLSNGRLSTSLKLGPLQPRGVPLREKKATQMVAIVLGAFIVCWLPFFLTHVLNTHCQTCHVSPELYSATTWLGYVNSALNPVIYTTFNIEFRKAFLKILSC
# assay_explanation: Radioligand binding, dopamine D3 ([3H]spiperone)
# experimental_context: read-out: Binding affinity (Inhibition rate % at 10 μM) D3
value_type: inhibition at 10 µM (%)
Numbers only, in %.

Below, each entry is followed by its recorded inhibition at 10 µM result.
COc1ccc(C2(C)C(=O)Nc3cc(Cl)cc(Cl)c3C2=O)cc1 (stereo not drawn) | 24
CC1(c2ccc(O)c([N+](=O)[O-])c2)C(=O)Nc2cc(Cl)cc(Cl)c2C1=O (stereo not drawn) | 34

Note: attention shifts to another entry.
Look up inhibition at 10 µM with hD3 receptor (Homo sapiens, UniProt P35462) for this compound: COc1ccc(C2(C)C(=O)Nc3ccccc3C2=O)cc1 (stereo not drawn)
13.1

---

# system: D1 (Homo sapiens)
# Sequence (P21728 whole entry): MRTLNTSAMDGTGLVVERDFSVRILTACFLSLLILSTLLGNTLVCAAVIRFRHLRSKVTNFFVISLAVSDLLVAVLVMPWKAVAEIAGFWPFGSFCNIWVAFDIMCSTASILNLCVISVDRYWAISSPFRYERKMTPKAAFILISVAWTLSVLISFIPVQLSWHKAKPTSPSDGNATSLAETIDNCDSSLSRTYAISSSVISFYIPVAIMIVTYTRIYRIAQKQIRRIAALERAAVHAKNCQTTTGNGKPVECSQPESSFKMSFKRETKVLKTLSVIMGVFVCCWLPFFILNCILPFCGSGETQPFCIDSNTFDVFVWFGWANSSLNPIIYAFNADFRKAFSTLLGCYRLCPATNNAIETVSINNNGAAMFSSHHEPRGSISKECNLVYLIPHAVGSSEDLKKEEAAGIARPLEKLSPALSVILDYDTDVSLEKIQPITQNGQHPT
# assay_explanation: Radioligand binding for selectivity, D1
# experimental_context: read-out: Binding affinity (Inhibition rate % at 10 μM) D1
value_type: inhibition at 10 µM (%)
Answers are plain numbers, in %.

Below, each entry is followed by its recorded inhibition at 10 µM result.
CC1(c2ccccc2)C(=O)Nc2cc(Cl)ccc2C1=O (stereo not shown) | 25.5
CC1(c2ccccc2)C(=O)Nc2cc(Cl)cc(Cl)c2C1=O (stereo not shown) | 11.4

Give inhibition at 10 µM for each listed item.
1. CN1CCN(c2cc(Cl)c3c(c2)NC(=O)C(C)(c2ccc(N)cc2)C3=O)CC1 (stereo not shown)
2. CC1(c2ccc(N)cc2)C(=O)Nc2cc(Cl)cc(Cl)c2C1=O (stereo not shown)
3. CC1(c2ccc(O)cc2)C(=O)Nc2cc(Cl)cc(Cl)c2C1=O (stereo not shown)

1. 27.4
2. 4.8
3. 51

---

Could you please report measured inhibition at 10 µM for the items listed next?
# system: hD3 receptor (Homo sapiens, UniProt P35462)
# Construct: purchased BioSignal Packard Inc., Montreal, Canada
# assay_explanation: Radioligand binding, dopamine D3 ([3H]spiperone)
# experimental_context: read-out: Binding affinity (Inhibition rate % at 10 μM) D3
Provide the measurement as a number trailed by its unit.

CN(C)c1ccc(C2(C)C(=O)Nc3cc(Cl)cc(Cl)c3C2=O)cc1 (stereo not drawn) [Example 40] | 4.5%

Give inhibition at 10 µM for each listed item.
1. CN1CCN(c2ccc3c(c2)NC(=O)C(C)(c2ccc([N+](=O)[O-])cc2)C3=O)CC1 (stereo not drawn) [Example 51]
2. CC1(c2ccccc2)C(=O)Nc2c(Br)cc(Br)cc2C1=O (stereo not drawn) [Example 10]
3. CC1(c2ccc(Cl)cc2)C(=O)Nc2cc(Cl)cc(Cl)c2C1=O (stereo not drawn) [Example 17]
4. CCNc1ccc(C2(C)C(=O)Nc3cc(Cl)cc(Cl)c3C2=O)cc1 (stereo not drawn) [Example 41]

13.5%
19.5%
16.5%
12.6%

---

# system: hD2L receptor (Homo sapiens)
# Construct: purchased BioSignal Packard Inc., Montreal, Canada
# Sequence (P14416 whole entry): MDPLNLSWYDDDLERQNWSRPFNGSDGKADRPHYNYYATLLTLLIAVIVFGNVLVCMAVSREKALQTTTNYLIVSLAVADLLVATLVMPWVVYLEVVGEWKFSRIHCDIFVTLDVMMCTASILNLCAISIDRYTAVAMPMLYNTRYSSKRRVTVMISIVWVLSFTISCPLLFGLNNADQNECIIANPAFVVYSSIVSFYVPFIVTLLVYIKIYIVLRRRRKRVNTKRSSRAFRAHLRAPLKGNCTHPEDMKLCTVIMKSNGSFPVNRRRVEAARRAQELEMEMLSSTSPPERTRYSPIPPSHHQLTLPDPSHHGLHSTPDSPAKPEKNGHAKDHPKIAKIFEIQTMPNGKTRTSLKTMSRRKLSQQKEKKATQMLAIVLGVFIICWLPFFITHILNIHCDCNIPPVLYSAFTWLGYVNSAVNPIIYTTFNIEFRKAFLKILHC
# assay_explanation: Radioligand binding, dopamine D2 ([3H]spiperone)
# experimental_context: read-out: Binding affinity (Inhibition rate % at 10 μM) D2
# Protocol: The radioligands used were [^3H] spiperone (for hD2L and hD3 receptors, 1 nM) and [^3H] YM-09151-2 (for hD4.2 receptor, 0.06 nM). Radioligand bindings were performed by the protocols provided by the supplier of receptor membranes (BioSignal Packard Inc., Montreal, Canada). […] Nonspecific binding was determined with haloperidol (10 μM) or clozapine (10 μM) for D2 and D3, and D4 receptors, respectively. […]
Could you please report measured inhibition at 10 µM for the items listed next?
Answers are plain numbers, in %.

Below, each entry is followed by its recorded inhibition at 10 µM result.
CC1(c2ccc([N+](=O)[O-])cc2)C(=O)Nc2cc(Cl)cc(Cl)c2C1=O (stereo not drawn) | 26.5
COc1ccc(C2(C)C(=O)Nc3cc(Cl)cc(Cl)c3C2=O)cc1 (stereo not drawn) | 16.3

Give inhibition at 10 µM for each listed item.
1. CN(C)c1cc(Cl)c2c(c1)NC(=O)C(C)(c1ccccc1)C2=O (stereo not drawn)
2. COc1ccc(C2(C)C(=O)Nc3c(Br)cc(Br)cc3C2=O)cc1[N+](=O)[O-] (stereo not drawn)
3. COc1ccc(C2(C)C(=O)Nc3c(Br)cc(Br)cc3C2=O)cc1N (stereo not drawn)
4. COc1cc(Cl)c2c(c1)NC(=O)C(C)(c1ccccc1)C2=O (stereo not drawn)
5. CCN(CC)c1ccc(C2(C)C(=O)Nc3cc(Cl)cc(Cl)c3C2=O)cc1 (stereo not drawn)

1. 19.3
2. 9.4
3. 5.6
4. 20.5
5. 15.7

Give inhibition at 10 µM for each listed item.
1. COc1cc(Cl)c2c(c1)NC(=O)C(C)(c1ccc(Br)cc1)C2=O (stereo not drawn)
2. CN1CCN(c2ccc3c(c2)NC(=O)C(C)(c2ccc([N+](=O)[O-])cc2)C3=O)CC1 (stereo not drawn)

[9.3, 7.4]

---

# system: 5-HT1a (Homo sapiens, UniProt P08908)
# Construct: purchased Euroscreen/BioSignal Packard Inc
# Sequence (P08908 whole entry): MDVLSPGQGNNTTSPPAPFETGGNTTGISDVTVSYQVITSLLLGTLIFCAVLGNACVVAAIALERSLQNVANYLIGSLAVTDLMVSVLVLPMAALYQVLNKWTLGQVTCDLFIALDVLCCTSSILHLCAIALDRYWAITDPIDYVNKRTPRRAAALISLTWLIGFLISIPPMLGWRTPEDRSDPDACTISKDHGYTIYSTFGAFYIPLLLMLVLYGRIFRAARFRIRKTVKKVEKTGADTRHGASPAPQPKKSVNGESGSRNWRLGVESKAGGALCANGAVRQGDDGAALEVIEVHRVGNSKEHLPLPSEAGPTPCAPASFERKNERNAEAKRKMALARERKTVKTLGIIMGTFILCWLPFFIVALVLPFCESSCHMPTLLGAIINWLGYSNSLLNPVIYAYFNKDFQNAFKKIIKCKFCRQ
# assay_explanation: Radioligand binding, 5-HT1a ([3H]8-OH-DPAT)
# experimental_context: read-out: Binding affinity (Inhibition rate % at 10 μM) 5HT1a
Could you please report measured inhibition at 10 µM for the items listed next?
Give bare numbers, in %.

CCNc1ccc(C2(C)C(=O)Nc3cc(Cl)cc(Cl)c3C2=O)cc1 (centres unmarked) [Example 41] | 15.7
CC1(c2ccc(Br)cc2)C(=O)Nc2cc(Cl)cc(Cl)c2C1=O (centres unmarked) [Example 18] | 8
COc1ccc(C2(C)C(=O)Nc3c(Br)cc(Br)cc3C2=O)cc1[N+](=O)[O-] (centres unmarked) [Example 28] | 60.9
COc1ccc(C2(C)C(=O)Nc3cc(Cl)cc(Cl)c3C2=O)cc1[N+](=O)[O-] (centres unmarked) [Example 21] | 15.9
CC1(c2ccc(O)cc2)C(=O)Nc2cc(Cl)cc(Cl)c2C1=O (centres unmarked) [Example 13] | 33.9
CN1CCN(c2cc(Cl)c3c(c2)NC(=O)C(C)(c2ccc([N+](=O)[O-])cc2)C3=O)CC1 (centres unmarked) [Example 49] | 1.4

Give inhibition at 10 µM for each listed item.
1. COc1ccc(C2(C)C(=O)Nc3cc(N4CCN(C)CC4)cc(Cl)c3C2=O)cc1 (centres unmarked) [Example 46]
2. CC1(c2ccc([N+](=O)[O-])cc2)C(=O)Nc2cc(Cl)cc(Cl)c2C1=O (centres unmarked) [Example 14]
3. COc1ccc(NS(=O)(=O)c2sc3ccc(Cl)cc3c2C)cc1N1CCNCC1 [SB-271046, reference compound]
4. CN1CCN(c2ccc3c(c2)NC(=O)C(C)(c2ccc(N)cc2)C3=O)CC1 (centres unmarked) [Example 50]
5. COc1cc(Br)c2c(c1)NC(=O)C(C)(c1ccccc1)C2=O (centres unmarked) [Example 7]

25.4
60.5
84.2
6.7
29.1

Give inhibition at 10 µM for each listed item.
1. CC1(c2ccc(O)c(Br)c2)C(=O)Nc2cc(Cl)cc(Cl)c2C1=O (centres unmarked) [Example 24]
2. CC1(c2ccc(N)cc2)C(=O)Nc2cc(Cl)cc(Cl)c2C1=O (centres unmarked) [Example 15]
3. CNc1ccc(C2(C)C(=O)Nc3cc(Cl)cc(Cl)c3C2=O)cc1 (centres unmarked) [Example 39]
4. CC1(c2cccc(O)c2)C(=O)Nc2cc(Cl)cc(Cl)c2C1=O (centres unmarked) [Example 20]
5. COc1cc2c(c(OC)c1)C(=O)C(C)(c1ccccc1)C(=O)N2 (centres unmarked) [Example 8]

50.4
52.3
23
0
30.2

---

# system: hD3 receptor (Homo sapiens)
# Construct: purchased BioSignal Packard Inc., Montreal, Canada
# assay_explanation: Radioligand binding, dopamine D3 ([3H]spiperone)
# experimental_context: read-out: Binding affinity (Inhibition rate % at 10 μM) D3
value_type: inhibition at 10 µM

Below, each entry is followed by its recorded inhibition at 10 µM result.
CC1(c2ccc(Br)cc2Br)C(=O)Nc2cc(Cl)ccc2C1=O (stereo not drawn) | 5.6%
CN1CCN(c2cc(Cl)c3c(c2)NC(=O)C(C)(c2ccc([N+](=O)[O-])cc2)C3=O)CC1 (stereo not drawn) | 12.4%
CC1(c2ccc(OCc3ccccc3)c(Br)c2)C(=O)Nc2cc(Cl)cc(Cl)c2C1=O (stereo not drawn) | 32.5%
C[C@H](NC(=O)Oc1ccc(C2(C)C(=O)Nc3cc(Cl)cc(Cl)c3C2=O)cc1)c1ccccc1 (stereo partly drawn) | 10.2%
CN1CCN(c2ccc3c(c2)NC(=O)C(C)(c2ccc(N)cc2)C3=O)CC1 (stereo not drawn) | 50.1%

Give inhibition at 10 µM for each listed item.
1. CC1(c2ccc(O)cc2)C(=O)Nc2cc(Cl)cc(Cl)c2C1=O (stereo not drawn)
2. CC1(c2ccc(N)cc2)C(=O)Nc2cc(Cl)cc(Cl)c2C1=O (stereo not drawn)
3. CC1(c2ccc(O)c(O)c2)C(=O)Nc2ccccc2C1=O (stereo not drawn)
4. COc1ccc(C2(C)C(=O)Nc3cc(Cl)cc(Cl)c3C2=O)cc1[N+](=O)[O-] (stereo not drawn)

1. 27.8%
2. 5.8%
3. 12.6%
4. 16.4%
